# Tested on: T-380 tumors
# TEST SUMMARY: Hapten biodistribution, premix protocol with bifunctional antibody ECH037.2
# Format: in vivo, nude mice
# MEASUREMENT PARAMETERS: 48 hours; premix with 20 µg ECH037.2
Parameter FECES: see the listing below.

**Query** Find the recorded FECES belonging to O=C(O)CCCC(=O)NCCNC(=S)Nc1ccc(CC(CN(CC(=O)O)CC(=O)O)N(CC(=O)O)CC(=O)O)cc1 (stereo not drawn) [GNUBE] and report it.
**Result** 17.8% of total injected dose

====

Consider the following compounds and their measured FECES readings.
# Test system: T-380 tumors
# TEST SUMMARY: Hapten biodistribution, premix protocol with bifunctional antibody ECH037.2
# Type: in vivo, nude mice
# MEASUREMENT PARAMETERS: 48 hours; premix with 20 µg ECH037.2

Below, each entry is followed by its recorded FECES result.
O=C(O)CN(CC(=O)O)CC(Cc1ccc(NC(=S)NCc2ccccc2)cc1)N(CC(=O)O)CC(=O)O (stereo not shown) | 29.0% of total injected dose
O=C(O)CCNC(=S)Nc1ccc(CC(CN(CC(=O)O)CC(=O)O)N(CC(=O)O)CC(=O)O)cc1 (stereo not shown) | 8.9% of total injected dose
O=C(O)CN(CC(=O)O)CC(Cc1ccc(NC(=S)NCCO)cc1)N(CC(=O)O)CC(=O)O (stereo not shown) | 7.9% of total injected dose

Next compound, please.
**Query** Give recorded FECES with T-380 tumors for the following compound: O=C(O)CCCNC(=S)Nc1ccc(CC(CN(CC(=O)O)CC(=O)O)N(CC(=O)O)CC(=O)O)cc1 (stereo not shown)
**Result** 21.1% of total injected dose

====

# System: T-380 tumors
# TEST SUMMARY: Hapten biodistribution, premix protocol with bifunctional antibody ECH037.2
# Assay type: in vivo, nude mice
# MEASUREMENT PARAMETERS: 48 hours; premix with 20 µg ECH037.2; ratio
MEASURE: TUMOR/BLOOD

// known answers, use as guide
O=C(O)CN(CC(=O)O)CC(Cc1ccc(NC(=S)NCCO)cc1)N(CC(=O)O)CC(=O)O (stereo not shown) | 3.09
O=C(O)CN(CC(=O)O)CC(Cc1ccc(NC(=S)NCc2ccccc2)cc1)N(CC(=O)O)CC(=O)O (stereo not shown) | 1.36
CCNC(=S)Nc1ccc(CC(CN(CC(=O)O)CC(=O)O)N(CC(=O)O)CC(=O)O)cc1 (stereo not shown) | 1.76
O=C(O)Cc1ccc(NC(=S)Nc2ccc(CC(CN(CC(=O)O)CC(=O)O)N(CC(=O)O)CC(=O)O)cc2)cc1 (stereo not shown) | 1.86
O=C(O)CN(CC(=O)O)CC(Cc1ccc(NC(=S)Nc2ccccc2)cc1)N(CC(=O)O)CC(=O)O (stereo not shown) | 1.96
NC(=S)Nc1ccc(CC(CN(CC(=O)O)CC(=O)O)N(CC(=O)O)CC(=O)O)cc1 (stereo not shown) | 1.71
O=C(O)CCCNC(=S)Nc1ccc(CC(CN(CC(=O)O)CC(=O)O)N(CC(=O)O)CC(=O)O)cc1 (stereo not shown) | 1.53
O=C(O)CCCC(=O)NCCNC(=S)Nc1ccc(CC(CN(CC(=O)O)CC(=O)O)N(CC(=O)O)CC(=O)O)cc1 (stereo not shown) | 1.49
CCCCCCCCNC(=S)Nc1ccc(CC(CN(CC(=O)O)CC(=O)O)N(CC(=O)O)CC(=O)O)cc1 (stereo not shown) | 1.40
O=C(O)CCNC(=S)Nc1ccc(CC(CN(CC(=O)O)CC(=O)O)N(CC(=O)O)CC(=O)O)cc1 (stereo not shown) | 1.29

**Query** # query: TUMOR/BLOOD of entry NCCNC(=S)Nc1ccc(CC(CN(CC(=O)O)CC(=O)O)N(CC(=O)O)CC(=O)O)cc1 (stereo not shown)
**Result** 4.0

**Query** What does the data say about its TUMOR/BLOOD? Entry: CC(=O)NC(CCCCNC(=S)Nc1ccc(CC(CN(CC(=O)O)CC(=O)O)N(CC(=O)O)CC(=O)O)cc1)C(N)=O (stereo not shown)
**Result** 2.48

**Query** For the compound shown here, CCCCNC(=S)Nc1ccc(CC(CN(CC(=O)O)CC(=O)O)N(CC(=O)O)CC(=O)O)cc1 (stereo not shown) , give the reported TUMOR/BLOOD.
**Result** 0.98

====

Below, each entry is listed alongside its reported % DOSE PER GRAM, KIDNEY.
# Tested on: T-380 tumors
# TEST SUMMARY: Hapten biodistribution, premix protocol with bifunctional antibody ECH037.2
# Type: in vivo, nude mice
# MEASUREMENT PARAMETERS: 24 hours; premix with 20 µg ECH037.2
State the answer as a number, implicitly in % DOSE PER GRAM.

Below, 5 compounds whose answers are already recorded.
NC(=S)Nc1ccc(CC(CN(CC(=O)O)CC(=O)O)N(CC(=O)O)CC(=O)O)cc1 (stereo not shown) | 2.4
NCCNC(=S)Nc1ccc(CC(CN(CC(=O)O)CC(=O)O)N(CC(=O)O)CC(=O)O)cc1 (stereo not shown) | 4.0
O=C(O)CN(CC(=O)O)CC(Cc1ccc(NC(=S)NCCO)cc1)N(CC(=O)O)CC(=O)O (stereo not shown) | 2.8
O=C(O)CCNC(=S)Nc1ccc(CC(CN(CC(=O)O)CC(=O)O)N(CC(=O)O)CC(=O)O)cc1 (stereo not shown) | 2.2
CCCCNC(=S)Nc1ccc(CC(CN(CC(=O)O)CC(=O)O)N(CC(=O)O)CC(=O)O)cc1 (stereo not shown) | 1.7

**Query** For the compound shown here, O=C(O)CN(CC(=O)O)CC(Cc1ccc(NC(=S)NCc2ccccc2)cc1)N(CC(=O)O)CC(=O)O (stereo not shown) , give the reported % DOSE PER GRAM, KIDNEY.
**Result** 2.5

====

# Tested on: T-380 tumors
# TEST SUMMARY: Hapten biodistribution, premix protocol with bifunctional antibody ECH037.2
# Assay type: in vivo, nude mice
# MEASUREMENT PARAMETERS: 48 hours; premix with 20 µg ECH037.2; 111In-labeled hapten i.v.
MEASURE: % DOSE PER GRAM, BLOOD (% DOSE PER GRAM)
Respond with the bare value in % DOSE PER GRAM.

O=C(O)CN(CC(=O)O)CC(Cc1ccc(NC(=S)NCCO)cc1)N(CC(=O)O)CC(=O)O (stereo not drawn) [EOTUBE] | 4.7

**Query** Data request, read-out % DOSE PER GRAM, BLOOD, for CCNC(=S)Nc1ccc(CC(CN(CC(=O)O)CC(=O)O)N(CC(=O)O)CC(=O)O)cc1 (stereo not drawn) [ETUBE]
**Result** 5.9

**Query** I'd like to know its % DOSE PER GRAM, BLOOD. The compound in question is CCCCNC(=S)Nc1ccc(CC(CN(CC(=O)O)CC(=O)O)N(CC(=O)O)CC(=O)O)cc1 (stereo not drawn) [BUTUBE]
**Result** 5.8

====

# System: T-380 tumors
# TEST SUMMARY: Hapten biodistribution, premix protocol with bifunctional antibody ECH037.2
# Type: in vivo, nude mice
# MEASUREMENT PARAMETERS: 24 hours; premix with 20 µg ECH037.2
MEASURE: % DOSE PER GRAM, TUMOR (% DOSE PER GRAM)
Write down the numeric answer in % DOSE PER GRAM and omit the unit.

**Query** I'd like to know its % DOSE PER GRAM, TUMOR. The compound in question is O=C(O)CN(CC(=O)O)CC(Cc1ccc(NC(=S)Nc2ccccc2)cc1)N(CC(=O)O)CC(=O)O (stereo not drawn)
**Result** 12.4

**Query** Which measured % DOSE PER GRAM, TUMOR value corresponds to CC(=O)NC(CCCCNC(=S)Nc1ccc(CC(CN(CC(=O)O)CC(=O)O)N(CC(=O)O)CC(=O)O)cc1)C(N)=O (stereo not drawn) ?
**Result** 13.0

**Query** GET /values?readout=% DOSE PER GRAM, TUMOR&item= O=C(O)CCNC(=S)Nc1ccc(CC(CN(CC(=O)O)CC(=O)O)N(CC(=O)O)CC(=O)O)cc1 (stereo not drawn)
**Result** 10.6

====

# Tested on: T-380 tumors
# TEST SUMMARY: Hapten biodistribution, premix protocol with bifunctional antibody ECH037.2
# Type: in vivo, nude mice
# MEASUREMENT PARAMETERS: 24 hours; premix with 20 µg ECH037.2; ratio
Reported TUMOR/BLOOD values follow for various compounds
# output: bare number, no unit

Some compounds with known TUMOR/BLOOD results, for comparison:
CCNC(=S)Nc1ccc(CC(CN(CC(=O)O)CC(=O)O)N(CC(=O)O)CC(=O)O)cc1 (stereo not shown) [ETUBE] | 0.77
CCCCCCCCNC(=S)Nc1ccc(CC(CN(CC(=O)O)CC(=O)O)N(CC(=O)O)CC(=O)O)cc1 (stereo not shown) [OTUBE] | 1.00
NCCNC(=S)Nc1ccc(CC(CN(CC(=O)O)CC(=O)O)N(CC(=O)O)CC(=O)O)cc1 (stereo not shown) [NUBE] | 1.44

**Query** Which TUMOR/BLOOD value belongs to NC(=S)Nc1ccc(CC(CN(CC(=O)O)CC(=O)O)N(CC(=O)O)CC(=O)O)cc1 (stereo not shown) [TUBE] ?
**Result** 1.06
